- protocol.notes: Quantitative High-Throughput drug screen in 47 multiple myeloma cell lines against the NCATS MIPE library collection: KMS20_JCRB cell viability assay (AID 1918973); further: nearly all actives have a fitted effect of over 45% in size
- condition.description: CellTiter-Glo ATP, 48 h; series mostly up to 45.8 µM
Results filed as inconclusive are left out. Activity calls are given as the source filed them. The call rests on the fitted dose curve; in most records, active means well fitted cell-killing curve with a large enough effect; inconclusive means small, poorly fitted or top-dose-only effect, or effect the other way; inactive means no such curve, though single readings can be large or run the other way.
Classes used: y = active, n = inactive

molecule	category
OCc1ccc(-c2ccc(-c3ccc(CO)s3)o2)s1	y
CCCCN1CCC(CNC(=O)c2c3n(c4ccccc24)CCCO3)CC1	y
Cc1nc2cnc3ccc(C#Cc4cccnc4)cc3c2n1-c1ccc(C(C)(C)C#N)cc1	y
Cc1ccc(NC(=O)C2(c3ccc4c(c3)OC(F)(F)O4)CC2)nc1-c1cccc(C(=O)O)c1	y
c1cc(-c2cnn3cc(-c4ccc(OCCN5CCCCC5)cc4)cnc23)ccn1	y
CC[C@@H]1C(=O)N(C)c2cnc(Nc3ccc(C(=O)NC4CCN(C)CC4)cc3OC)nc2N1C1CCCC1	y
COc1cc2c(cc1-c1c(C)noc1C)ncc1[nH]c(=O)n([C@H](C)c3ccccn3)c12	y
COCCOc1ccc2c(c1)ncn2-c1ccc2cccc(N3CCC(N)CC3)c2n1	y
CN1CCN(c2ccc3nc(-c4c(N)c5c(F)cccc5[nH]c4=O)[nH]c3c2)CC1	y
CC=CC1=C(C(=O)O)N2C(=O)[C@H](NC(=O)[C@H](N)c3ccc(O)cc3)[C@@H]2SC1	y
O=C(O)[C@H](Cc1c[nH]c2ccccc12)N1C(=O)c2ccccc2C1=O	n
CCOc1cc2ncc(C#N)c(Nc3ccc(F)c(Cl)c3)c2cc1NC(=O)C=CCN(C)C	y
COc1cc2c(Oc3ccc(-c4cnc(Nc5ccc(F)cc5)n(C)c4=O)cc3F)ccnc2cc1OCCCN1CCOCC1	y
Nc1cccc(-c2cc3c(Oc4cccc(O)c4)ncnc3[nH]2)c1	y
COc1cc(C(=O)NS(=O)(=O)c2ccccc2C)ccc1Cc1cn(C)c2ccc(NC(=O)OC3CCCC3)cc12	y
Cc1ccc(C(=O)Nc2ccc(CN3CCN(C)CC3)c(C(F)(F)F)c2)cc1C#Cc1cnc2cccnn12	y
C[C@]12CC[C@H](O)CC1=CCC1C2CC[C@]2(C)C(n3cnc4ccccc43)=CCC12 (stereo partly drawn)	n
Nc1cc(C(F)(F)F)c(-c2cc(N3CCOCC3)nc(N3CCOCC3)n2)cn1	y
COc1cc(=C2C=c3ccccc3=N2)[nH]c1=Cc1[nH]c(C)cc1C	y
Cc1ccc(-c2ncn(-c3ccc(Nc4nccc(-c5cccc(N6CCOCC6)c5)n4)cc3)n2)cn1	y
CN(c1ncccc1CNc1nc(Nc2ccc3c(c2)CC(=O)N3)ncc1C(F)(F)F)S(C)(=O)=O	y
Cc1[nH]nc2ccc(-c3cncc(OC[C@@H](N)Cc4ccccc4)c3)cc12	y
Nc1nc(NCCNc2ncc(-n3ccnc3)c(-c3ccc(Cl)cc3Cl)n2)ccc1[N+](=O)[O-]	y
O=C(Nc1ncc(-c2cc(C(F)F)nn2-c2c(Cl)cccc2Cl)s1)C1CC1	y
CC(C)CC(=O)Nc1n[nH]c2c1CN(C(=O)C1CCN(C)CC1)C2(C)C	y
CC(C)[C@H](C(=O)Nc1ccc(C(=O)NO)cc1)c1ccccc1	y
CS(=O)(=O)c1ccc(-c2cnc(N)c(C(=O)Nc3ccccc3)n2)cc1	n
Cc1cc(Nc2nc(N[C@@H](C)c3ccc(F)cc3)c(C#N)cc2F)n[nH]1	y
CCCCOc1c(C(=O)c2c(F)cc(C)cc2F)cnc2n[nH]cc12	y
NC1(Cc2ccc(Cl)cc2)CCN(c2ncnc3[nH]ccc23)CC1	y
O=C(NC1CCNCC1)c1[nH]ncc1NC(=O)c1c(Cl)cccc1Cl	y
Nc1nc(Nc2ccc(S(N)(=O)=O)cc2)nn1C(=O)c1c(F)cccc1F	y
CN1CCC(CNc2ccc3ncc(-c4cccc(OC(F)(F)F)c4)n3n2)CC1	y
CCn1nnc2c(N3CCOCC3)nc(-c3ccc(NC(=O)Nc4ccc(C(=O)N5CCN(C)CC5)cc4)cc3)nc21	y
Cc1ccc(C(=O)Nc2cccc(C(F)(F)F)c2)cc1-c1ccc2nc(NCCN3CCOCC3)ncc2c1	y
Cn1c2ccccc2c2c3c(c4c5ccccc5n(CCC#N)c4c21)CNC3=O	y
CCC1=C[C@@H]2CN(C1)Cc1c([nH]c3ccccc13)[C@@](C(=O)OC)(c1cc3c(cc1OC)N(C)[C@@H]1[C@@](O)(C(=O)OC)[C@H](OC(C)=O)[C@]4(CC)C=CCN5CC[C@]31[C@@H]54)C2	y
Cc1cnc(Nc2ccc(F)cc2Cl)nc1-c1c[nH]c(C(=O)N[C@H](CO)c2cccc(Cl)c2)c1	y
